Taken from patent US20240025919A1.

Molecular target: KRAS G12D (Homo sapiens (Human), UniProt P01116, G12D)
Sequence (P01116-2 other isoform, or with tags, fused parts or gaps G12D): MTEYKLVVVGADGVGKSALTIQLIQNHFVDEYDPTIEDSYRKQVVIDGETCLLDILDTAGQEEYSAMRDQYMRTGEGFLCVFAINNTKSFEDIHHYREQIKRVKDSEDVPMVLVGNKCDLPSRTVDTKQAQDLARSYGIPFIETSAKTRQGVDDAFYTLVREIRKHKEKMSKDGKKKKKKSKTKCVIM
Experiment: KRAS G12D LoEnz Biochemical Assay, BODIPY-GDP Exchange TR-FRET (SOS1-mediated nucleotide exchange)
Settings: read-out: KRas (G12D) GDP HTRF IC50
Experimental: Example 500: KRAS G12D LoEnz Biochemical Assay, BODIPY-GDP Exchange TR-FRET. Biochemical compound potencies are assessed by evaluating inhibition of SOS1I-mediated nucleotide exchange in KRAS G121D. In this assay, the SOS1-promoted exchange of fluorescently-labeled GDP (BOPIDY-GDP) is monitored by time-resolved fluorescence resonance energy transfer (TR-FRET). […] After a 120-minute incubation, the fluorescence is measured with excitation at 337 nm and emission at 490 and 520 nm. […]
pIC50: −log10 of the molar value.
Property: pIC50; scope: individual compounds

>  <compound>
Cc1c(F)c(N)cc(-c2nc3c4c(nc(OC[C@]56COC[C@@H]5CCN6C)nc4c2F)N2C[C@H]4CC[C@H](N4)[C@H]2[C@H](C)O3)c1C(F)(F)F (single isomer, unassigned) [134 (isomer 2)]

>  <pIC50>
9.72

$$$$
>  <compound>
Cc1c(F)c(N)cc(-c2nc3c4c(nc(OC[C@]56COC[C@H]5CCN6C)nc4c2F)N2C[C@H]4CC[C@H](N4)[C@H]2[C@H](C)O3)c1C(F)(F)F (single isomer, unassigned) [134 (isomer 1)]

>  <pIC50>
9.72

$$$$
>  <compound>
Cc1cc(N)c(F)c(-c2nc3c4c(nc(OCC5(CN6CCOCC6)CC5)nc4c2F)N2C[C@H]4CC[C@H](N4)[C@H]2[C@H](C)O3)c1C(F)(F)F

>  <pIC50>
9.40

$$$$
>  <compound>
Cc1cc(N)cc(-c2nc3c4c(nc(OC[C@]56CCN5CC(F)(F)C6)nc4c2F)N2C[C@H]4CC[C@H](N4)[C@H]2[C@H](C)O3)c1C(F)(F)F

>  <pIC50>
9.74

$$$$
>  <compound>
Cc1c(F)c(N)c(F)c(-c2nc3c4c(nc(OC[C@@]56CCCN5CC5(CC5(F)F)C6)nc4c2F)N2C[C@H]4CC[C@H](N4)[C@H]2[C@H](C)O3)c1C(F)(F)F (stereo partly shown)

>  <pIC50>
9.60

$$$$
>  <compound>
Cc1c(F)c(N)cc(-c2nc3c4c(nc(OC[C@H]5C[C@@H]6COCCN65)nc4c2F)N2C[C@H]4CC[C@H](N4)[C@H]2[C@H](C)O3)c1C(F)(F)F (mixture of isomers) [159 (mixture)]

>  <pIC50>
9.64

$$$$
>  <compound>
CO[C@@H]1CCN(CC2(COc3nc4c5c(nc(-c6cc(N)nc(C)c6C(F)(F)F)c(F)c5n3)O[C@@H](C)[C@@H]3[C@@H]5CC[C@H](CN43)N5)CC2)C[C@@H]1F

>  <pIC50>
9.32

$$$$
>  <compound>
Cc1c(F)c(N)cc(-c2nc3c4c(nc(OCC5CCC6CN(C)C(=O)CN56)nc4c2F)N2C[C@H]4CC[C@H](N4)[C@H]2[C@H](C)O3)c1C(F)(F)F (mixture of isomers)

>  <pIC50>
8.76

$$$$
>  <compound>
Cc1c(F)c(N)cc(-c2nc3c4c(nc(OC[C@@]56CCCN5C[C@H](F)C6)nc4c2F)N2C[C@H]4CC[C@H](N4)[C@H]2[C@H](C)O3)c1CC(F)F

>  <pIC50>
9.89

$$$$
>  <compound>
Cc1c(F)c(N)cc(-c2nc3c4c(nc(OC[C@@]56CCC(C)N5C[C@H](F)C6)nc4c2F)N2C[C@H]4CC[C@H](N4)[C@H]2[C@H](C)O3)c1C(F)(F)F (stereo partly shown)

>  <pIC50>
9.96

$$$$
>  <compound>
Cc1c(F)ccc(-c2nc3c4c(nc(OC[C@@]56CCCN5C[C@H](F)C6)nc4c2F)N2C[C@H]4CC[C@H](N4)[C@H]2[C@H](C)O3)c1C(F)(F)F

>  <pIC50>
7.57

$$$$
>  <compound>
C=C1CN2CCC[C@@]2(COc2nc3c4c(nc(-c5nc(N)cc(C)c5C(F)(F)F)c(F)c4n2)O[C@@H](C)[C@@H]2[C@@H]4CC[C@H](CN32)N4)C1

>  <pIC50>
9.31

$$$$
>  <compound>
C[C@@H]1Oc2nc(-c3cc(N)c(F)cc3C(F)(F)F)c(F)c3nc(OC[C@@]45CCCN4C[C@H](F)C5)nc(c23)N2C[C@H]3CC[C@H](N3)[C@@H]12

>  <pIC50>
9.59

$$$$
>  <compound>
Cc1c(F)c(N)cc(-c2nc3c4c(nc(OC[C@]5(CN6C[C@H]7C[C@@H]6CO7)CC5(F)F)nc4c2F)N2C[C@H]4CC[C@H](N4)[C@H]2[C@H](C)O3)c1C(F)(F)F (single isomer, unassigned) [166 a]

>  <pIC50>
10.00

$$$$
>  <compound>
Cc1c(F)c(N)cc(-c2nc3c4c(nc(OCC56CCN5CC(F)(F)C6)nc4c2F)N2C[C@H]4CC[C@H](N4)[C@H]2[C@H](C(F)(F)F)O3)c1C(F)(F)F (mixture of isomers) [Compound 244]

>  <pIC50>
9.28

$$$$
>  <compound>
Cc1c(F)c(N)cc(-c2nc3c4c(nc(OC[C@@H]5COC[C@H]6CCCN65)nc4c2F)N2C[C@H]4CC[C@H](N4)[C@H]2[C@H](C)O3)c1C(F)(F)F (single isomer, unassigned) [121 (isomer 2)]

>  <pIC50>
9.57

$$$$
>  <compound>
Cc1cc(N)nc(-c2nc3c4c(nc(OC[C@@]56CCCN5C[C@H](F)C6)nc4c2F)N2C[C@H]4CC[C@H](N4)[C@H]2[C@H](C)O3)c1C(F)(F)F

>  <pIC50>
9.22

$$$$
>  <compound>
C[C@@H]1Oc2nc(-c3cc(N)cc(F)c3C(F)(F)F)c(F)c3nc(OC[C@@H]4CC[C@H]5COCCN54)nc(c23)N2C[C@H]3CC[C@H](N3)[C@@H]12

>  <pIC50>
9.62

$$$$
>  <compound>
C#Cc1cccc2cncc(-c3nc4c5c(nc(OC[C@@]67CCCN6CC6(CC6(F)F)C7)nc5c3F)N3C[C@H]5CC[C@H](N5)[C@H]3[C@H](C)O4)c12 (stereo partly shown)

>  <pIC50>
8.89

$$$$
